# tested.system: HLA-A*01:01
# experiment.notes: IEDB peptide-MHC binding, purified MHC/competitive/radioactivity; filed as Kd, often an IC50 or EC50 that approximates it; bounds were set here for any values at or beyond the usual limits of such assays
# measurement.conditions: source organism: Dengue virus 1 Brazil/97-11/1997
endpoint.name: Kd (µM)
Give bare numbers, in µM.

item.sequence	recorded.value
WTTLLSLTF	11.2

Read off the recorded Kd for `TSITQKGIIF`
7.35

###

# tested.system: HLA-A*32:01
# experiment.notes: IEDB peptide-MHC binding, purified MHC/competitive/radioactivity; filed as Kd, often an IC50 or EC50 that approximates it; bounds were set here for any values at or beyond the usual limits of such assays
# measurement.conditions: source organism: Dengue virus 4 Dominica/814669/1981
endpoint.name: pKd
Give bare numbers, as −log10 of the molar value.

Read off the recorded pKd for `GPILTLWEGN`
6.30

###

# tested.system: HLA-A*32:01
# experiment.notes: IEDB peptide-MHC binding, purified MHC/competitive/radioactivity; filed as Kd, often an IC50 or EC50 that approximates it; bounds were set here for any values at or beyond the usual limits of such assays
# measurement.conditions: source organism: Mammarenavirus guanaritoense
endpoint.name: Kd (µM)
One number for each entry, in µM.

Before answering, review these 2 worked examples.
item.sequence	recorded.value
RVGLYGLLFY	2.34
HTNFESFTV	0.682

Pending sequence:
Provide Kd, tested on HLA-A*32:01, for `HLSRTVVYSY` .
0.671

###

# tested.system: HLA-A*26:01
# experiment.notes: IEDB peptide-MHC binding, purified MHC/competitive/radioactivity; filed as Kd, often an IC50 or EC50 that approximates it; bounds were set here for any values at or beyond the usual limits of such assays
# measurement.conditions: source organism: Mammarenavirus whitewaterense
endpoint.name: Kd

Look up Kd of `ATGTDMPGGY` and report it.
≥ 69.7 µM

###

# tested.system: HLA-B*08:01
# experiment.notes: IEDB peptide-MHC binding, purified MHC/direct/fluorescence; filed as Kd, often an IC50 or EC50 that approximates it; bounds were set here for any values at or beyond the usual limits of such assays
# measurement.conditions: source organism: Brucella abortus
endpoint.name: Kd

Determine from records and report Kd for `GYSFSIPGY`
≥ 20 µM

###

For each entry below, report its Kd value.
# tested.system: HLA-B*57:01
# experiment.notes: IEDB peptide-MHC binding, purified MHC/direct/fluorescence; filed as Kd, often an IC50 or EC50 that approximates it; bounds were set here for any values at or beyond the usual limits of such assays
# measurement.conditions: source organism: Bacillus anthracis

item.sequence	tested.system	endpoint.name	recorded.value
KVQEWYLSY	HLA-B*57:01	Kd	≥ 20 µM

Okay, now this sequence:
Provide measured Kd on HLA-B*57:01 for `RTIQGQRFW` please.
≥ 20 µM

###

# tested.system: HLA-A*02:11
# experiment.notes: IEDB peptide-MHC binding, purified MHC/direct/fluorescence; filed as Kd, often an IC50 or EC50 that approximates it; bounds were set here for any values at or beyond the usual limits of such assays
# measurement.conditions: source organism: Vibrio vulnificus CMCP6
endpoint.name: Kd (nM)
Give bare numbers, in nM.

Please give measured Kd of the following entry: `GLKELGDWV`
9

###

# tested.system: HLA-B*57:01
# experiment.notes: IEDB peptide-MHC binding, purified MHC/competitive/fluorescence; filed as Kd, often an IC50 or EC50 that approximates it; bounds were set here for any values at or beyond the usual limits of such assays
# measurement.conditions: source organism: Homo sapiens
pKd: −log10 of the molar value.
Kindly state pKd for each of the entries shown.

item.sequence	pKd
FMDPGIFPR	≤ 4.70

Identify measured pKd corresponding to `LTDSSTLLV`
≤ 4.70

###

# tested.system: HLA-B*40:01
# experiment.notes: IEDB peptide-MHC binding, purified MHC/competitive/fluorescence; filed as Kd, often an IC50 or EC50 that approximates it; bounds were set here for any values at or beyond the usual limits of such assays
# measurement.conditions: source organism: Pseudomonas sp. MIS38
pKd: −log10 of the molar value.
endpoint.name: pKd

Consider the sequence `YMLKDSAPT` . State its measured pKd.
≤ 4.70

###

# tested.system: HLA-A*11:01
# experiment.notes: IEDB peptide-MHC binding, purified MHC/direct/fluorescence; filed as Kd, often an IC50 or EC50 that approximates it; bounds were set here for any values at or beyond the usual limits of such assays
# measurement.conditions: source organism: Vibrio parahaemolyticus
endpoint.name: Kd (µM)
Give bare numbers, in µM.

Given the sequence `VFMDNAFKK` , write its reported Kd.
0.131

###

# tested.system: HLA-A*26:01
# experiment.notes: IEDB peptide-MHC binding, purified MHC/competitive/fluorescence; filed as Kd, often an IC50 or EC50 that approximates it; bounds were set here for any values at or beyond the usual limits of such assays
# measurement.conditions: source organism: Burkholderia pseudomallei K96243
pKd: −log10 of the molar value.
endpoint.name: pKd

State, for HLA-A*26:01, measured pKd of the sequence listed here: `SELTVSPPD`
≤ 4.70

###

# tested.system: HLA-C*14:02
# experiment.notes: IEDB peptide-MHC binding, purified MHC/competitive/fluorescence; filed as Kd, often an IC50 or EC50 that approximates it; bounds were set here for any values at or beyond the usual limits of such assays
# measurement.conditions: source organism: Staphylococcus aureus subsp. aureus N315
endpoint.name: Kd (nM)
One number for each entry, in nM.

Provide measured Kd value, entry: `YTIGIGAFY`
9.4

###

Task for the reader: assign each of the following sequences its reported Kd.
# tested.system: HLA-A*02:01
# experiment.notes: IEDB peptide-MHC binding, purified MHC/direct/fluorescence; filed as Kd, often an IC50 or EC50 that approximates it; bounds were set here for any values at or beyond the usual limits of such assays
# measurement.conditions: source organism: Bacillus anthracis

A selection of reference data follows.
item.sequence	Kd
FIFGKMGAG	≥ 20 µM
RTIQGQRFW	≥ 20 µM

Switching to the query record.
Answer with the recorded Kd of `KVQEWYLSY` only.
14.3 µM

###

# tested.system: HLA-B*44:03
# experiment.notes: IEDB peptide-MHC binding, purified MHC/competitive/radioactivity; filed as Kd, often an IC50 or EC50 that approximates it; bounds were set here for any values at or beyond the usual limits of such assays
# measurement.conditions: source organism: Lymphocytic choriomeningitis virus (strain Armstrong)
endpoint.name: Kd (µM)
Answers are plain numbers, in µM.

State its Kd: `IEVALRTLL`
3.73

###

# tested.system: HLA-B*35:01
# experiment.notes: IEDB peptide-MHC binding, purified MHC/competitive/radioactivity; filed as Kd, often an IC50 or EC50 that approximates it; bounds were set here for any values at or beyond the usual limits of such assays
# measurement.conditions: source organism: Lymphocytic choriomeningitis virus (strain Armstrong)
endpoint.name: Kd (µM)
Give bare numbers, in µM.

Complete the entry with Kd for `EPVPLTVKM`
0.0634

###

# tested.system: HLA-A*02:03
# experiment.notes: IEDB peptide-MHC binding, purified MHC/competitive/radioactivity; filed as Kd, often an IC50 or EC50 that approximates it; bounds were set here for any values at or beyond the usual limits of such assays
# measurement.conditions: source organism: Dengue virus 2 Peru/IQT2913/1996
endpoint.name: Kd

Output Kd of `LMMTTIGIV`
0.9 nM

###

# tested.system: HLA-A*26:01
# experiment.notes: IEDB peptide-MHC binding, purified MHC/competitive/radioactivity; filed as Kd, often an IC50 or EC50 that approximates it; bounds were set here for any values at or beyond the usual limits of such assays
# measurement.conditions: source organism: Dengue virus 1 Brazil/97-11/1997
endpoint.name: Kd (µM)
Give bare numbers, in µM.

Take each entry in turn and give its Kd.
1. DTAWDFGSI
2. EIQLTDYGAL
3. MLVTPSMAM

1: 0.562; 2: 5.58; 3: 6.42

###

# tested.system: HLA-B*18:01
# experiment.notes: IEDB peptide-MHC binding, purified MHC/direct/fluorescence; filed as Kd, often an IC50 or EC50 that approximates it; bounds were set here for any values at or beyond the usual limits of such assays
# measurement.conditions: source organism: Coxiella burnetii Q321
endpoint.name: Kd

Give the reported Kd for this sequence. `DGAEGINPY`
≥ 20 µM

###

# tested.system: HLA-A*69:01
# experiment.notes: IEDB peptide-MHC binding, purified MHC/direct/fluorescence; filed as Kd, often an IC50 or EC50 that approximates it; bounds were set here for any values at or beyond the usual limits of such assays
# measurement.conditions: source organism: Influenza A virus (A/camel/Mongolia/1982(H1N1))
pKd: −log10 of the molar value.
endpoint.name: pKd

item.sequence	pKd
KFFPSSSYR	≤ 4.70

As a next step, examine the sequence that follows.
Supply recorded pKd for `EKFFPSSSY` here.
≤ 4.70

###

# tested.system: HLA-A*02:01
# experiment.notes: IEDB peptide-MHC binding, purified MHC/competitive/fluorescence; bounds were set here for any values at or beyond the usual limits of such assays
# measurement.conditions: source organism: Vaccinia virus Copenhagen
endpoint.name: IC50

Give the value of IC50 reported for the following: `STFIMLEGE`
≥ 434 µM
